# assayed.system: human NHE3 (Homo sapiens)
# Sequence (P48764 26-834): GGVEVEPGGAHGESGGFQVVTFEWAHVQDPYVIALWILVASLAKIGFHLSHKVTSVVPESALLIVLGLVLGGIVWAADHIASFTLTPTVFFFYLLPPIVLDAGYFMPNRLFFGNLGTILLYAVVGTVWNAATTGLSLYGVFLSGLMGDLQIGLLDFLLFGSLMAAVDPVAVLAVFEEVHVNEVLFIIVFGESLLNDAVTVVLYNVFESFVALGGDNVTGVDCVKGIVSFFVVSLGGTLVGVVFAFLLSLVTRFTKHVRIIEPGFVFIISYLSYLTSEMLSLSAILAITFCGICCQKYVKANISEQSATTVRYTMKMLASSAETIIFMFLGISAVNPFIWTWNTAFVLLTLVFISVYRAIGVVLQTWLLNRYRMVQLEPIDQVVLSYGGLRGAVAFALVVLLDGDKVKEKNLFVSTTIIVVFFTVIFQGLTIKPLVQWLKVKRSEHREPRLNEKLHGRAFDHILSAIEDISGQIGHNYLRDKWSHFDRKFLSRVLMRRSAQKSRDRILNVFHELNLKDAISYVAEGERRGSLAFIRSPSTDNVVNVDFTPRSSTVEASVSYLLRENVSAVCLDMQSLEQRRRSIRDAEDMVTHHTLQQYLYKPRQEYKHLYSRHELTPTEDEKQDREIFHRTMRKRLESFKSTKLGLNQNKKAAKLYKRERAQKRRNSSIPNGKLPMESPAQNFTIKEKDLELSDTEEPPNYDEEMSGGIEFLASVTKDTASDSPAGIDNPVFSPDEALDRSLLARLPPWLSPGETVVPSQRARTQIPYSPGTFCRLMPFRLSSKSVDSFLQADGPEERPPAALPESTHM
# protocol.details: Cell-based assay of NHE-3 activity (persistent inhibition), human
# experimental.context: PS120 fibroblasts stably expressing human NHE3, 60 min incubation then washout
readout: % inhibition (human Persistence assay)

Some molecules with recorded % inhibition (human Persistence assay):
>  <molecule>
O=C(NCCCCNC(=O)NCCOCCOCCNS(=O)(=O)c1ccc(O[C@H]2c3cc(Cl)cc(Cl)c3C[C@@H]2N2CCCC2)cc1)NCCOCCOCCNS(=O)(=O)c1ccc(O[C@H]2c3cc(Cl)cc(Cl)c3C[C@@H]2N2CCCC2)cc1 [Example 17]

>  <test.value>
C (>70%)

$$$$
>  <molecule>
CN(C)[C@H]1Cc2c(Cl)cc(Cl)cc2[C@@H]1Oc1ccc(S(=O)(=O)NCCOCCOCCNC(=O)C(C)(C)C(=O)NCCOCCOCCNS(=O)(=O)c2ccc(O[C@H]3c4cc(Cl)cc(Cl)c4C[C@@H]3N(C)C)cc2)cc1 [Example 36]

>  <test.value>
C (>70%)

$$$$
>  <molecule>
O=C(NCCCCNC(=O)NCCOCCOCCNS(=O)(=O)c1ccc(O[C@H]2c3ccccc3C[C@@H]2N2CCCCC2)cc1)NCCOCCOCCNS(=O)(=O)c1ccc(O[C@H]2c3ccccc3C[C@@H]2N2CCCCC2)cc1 [Example 14]

>  <test.value>
C (>70%)

$$$$
>  <molecule>
O=C(NCCCCNC(=O)NCCOCCOCCNS(=O)(=O)c1ccc(O[C@H]2c3cc(Cl)cc(F)c3C[C@@H]2N2CC[C@@H](O)C2)cc1)NCCOCCOCCNS(=O)(=O)c1ccc(O[C@H]2c3cc(Cl)cc(F)c3C[C@@H]2N2CC[C@@H](O)C2)cc1 [Example 4]

>  <test.value>
B (40-70%)

$$$$
>  <molecule>
O=C(NCCCCNC(=O)NCCOCCOCCOCCNS(=O)(=O)c1ccc(O[C@H]2c3ccccc3C[C@@H]2N2CCCCC2)cc1)NCCOCCOCCOCCNS(=O)(=O)c1ccc(O[C@H]2c3ccccc3C[C@@H]2N2CCCCC2)cc1 [Example 16]

>  <test.value>
B (40-70%)

$$$$
>  <molecule>
CN(C)[C@H]1Cc2c(Cl)cc(Cl)cc2[C@@H]1Oc1ccc(S(=O)(=O)NCCOCCOCCNC(=O)COCC(=O)NCCOCCOCCNS(=O)(=O)c2ccc(O[C@H]3c4cc(Cl)cc(Cl)c4C[C@@H]3N(C)C)cc2)cc1 [Example 9]

>  <test.value>
C (>70%)

$$$$
>  <molecule>
O=C(NCCCCNC(=O)NCCOCCOCCNS(=O)(=O)c1ccc(O[C@H]2c3cc(F)ccc3C[C@@H]2N2CCCCC2)cc1)NCCOCCOCCNS(=O)(=O)c1ccc(O[C@H]2c3cc(F)ccc3C[C@@H]2N2CCCCC2)cc1 [Example 23]

>  <test.value>
C (>70%)

$$$$
>  <molecule>
N[C@@H]1CCCN([C@H]2Cc3c(Cl)cc(Cl)cc3[C@@H]2Oc2ccc(S(=O)(=O)NCCOCCOCCNC(=O)NCCCCNC(=O)NCCOCCOCCNS(=O)(=O)c3ccc(O[C@H]4c5cc(Cl)cc(Cl)c5C[C@@H]4N4CCC[C@@H](N)C4)cc3)cc2)C1 [Example 3]

>  <test.value>
C (>70%)

$$$$

Answer with reported % inhibition (human Persistence assay) of O=C(NCCCCNC(=O)NCCOCCOCCNS(=O)(=O)c1ccc(O[C@H]2c3cc(Cl)cc(Cl)c3C[C@@H]2N2CC[C@@H](O)C2)cc1)NCCOCCOCCNS(=O)(=O)c1ccc(O[C@H]2c3cc(Cl)cc(Cl)c3C[C@@H]2N2CC[C@@H](O)C2)cc1 [Example 30]
C (>70%)

Answer with reported % inhibition (human Persistence assay) of O=C(NCCCCNC(=O)NCCOCCOCCNS(=O)(=O)c1ccc(O[C@H]2c3cc(Cl)cc(Cl)c3C[C@@H]2N2CCCCC2)cc1)NCCOCCOCCNS(=O)(=O)c1ccc(O[C@H]2c3cc(Cl)cc(Cl)c3C[C@@H]2N2CCCCC2)cc1 [Example 15]
C (>70%)

Answer with reported % inhibition (human Persistence assay) of CN(C)[C@H]1Cc2ccccc2[C@@H]1Oc1ccc(S(=O)(=O)NCCOCCOCCNC(=O)NCCCCNC(=O)NCCOCCOCCNS(=O)(=O)c2ccc(O[C@H]3c4ccccc4C[C@@H]3N(C)C)cc2)cc1 [Example 20]
B (40-70%)

====

# System: absorption of sodium from the intestinal lumen
# protocol.details: Inhibition of intestinal sodium absorption: rat urinary sodium and fecal form 16 h post-dose
# Type: in vivo, Sprague-Dawley rats
# experimental.context: oral gavage 10 mg/kg, urine 16 h post-dose, read-out: uNa Result, uNa (% of vehicle)
readout: response vs control in vivo at 10 mg/kg

>  <molecule>
O=C(NCCCCNC(=O)NCCOCCOCCNS(=O)(=O)c1ccc(O[C@H]2c3ccccc3C[C@@H]2N2CCCCC2)cc1)NCCOCCOCCNS(=O)(=O)c1ccc(O[C@H]2c3ccccc3C[C@@H]2N2CCCCC2)cc1 [Example 14]

>  <assayed.system>
absorption of sodium from the intestinal lumen

>  <response vs control in vivo at 10 mg/kg>
35 to 75%

$$$$
>  <molecule>
CC(N)(CCC(=O)NCCOCCOCCNS(=O)(=O)c1ccc(O[C@H]2c3ccccc3C[C@@H]2N2CCCCC2)cc1)CCC(=O)NCCOCCOCCNS(=O)(=O)c1ccc(O[C@H]2c3ccccc3C[C@@H]2N2CCCCC2)cc1 [Example 37]

>  <assayed.system>
absorption of sodium from the intestinal lumen

>  <response vs control in vivo at 10 mg/kg>
35 to 75%

$$$$

Answer with reported response vs control in vivo at 10 mg/kg of CN(C)[C@H]1Cc2c(Cl)cc(Cl)cc2[C@@H]1Oc1ccc(S(=O)(=O)NCCOCCOCCNC(=O)CCC(C)(N)CCC(=O)NCCOCCOCCNS(=O)(=O)c2ccc(O[C@H]3c4cc(Cl)cc(Cl)c4C[C@@H]3N(C)C)cc2)cc1 [Example 11]
35 to 75%

Answer with reported response vs control in vivo at 10 mg/kg of CN(C)[C@H]1Cc2ccc(Cl)cc2[C@@H]1Oc1ccc(S(=O)(=O)NCCOCCOCCNC(=O)NCCCCNC(=O)NCCOCCOCCNS(=O)(=O)c2ccc(O[C@H]3c4cc(Cl)ccc4C[C@@H]3N(C)C)cc2)cc1 [Example 21]
> 75%
